# Tested on: velvetleaf (Abutilon theophrasti)
# measurement protocol: Test B pre/postemergence
# Type: in vivo
# run conditions: Postemergence, 500 g ai/ha; scale 0 to 100
quantity: Plant response rating, Velvetleaf
Lab note: record the figure alone, no unit after it.

## Input Which value of Plant response rating, Velvetleaf has been reported for CC(C)COC(=O)c1nc(C2CC2)nc(N)c1Br [Compound 17] in the records?
## Output 100

## Input Same question for CCOC(=O)c1nc(C2CC2)nc(NOCC(=O)O)c1Br [Compound 125] please.
## Output 50

## Input Same question for CCOC(=O)C(C)c1nc(C2CC2)nc(N)c1Br (stereo not drawn) [Compound 32] please.
## Output 50

## Input Same question for CN(C)N=Cc1nc(C2CC2)nc(N)c1Br [Compound 50] please.
## Output 90

## Input Same question for CCOC(=O)Cc1nc(-c2ccc(Cl)cc2)nc(N)c1Br [Compound 41] please.
## Output 70

## Input Same question for COC(=O)c1nc(-c2ccc(C(F)(F)F)cc2)nc(N)c1Cl [Compound 44] please.
## Output 90

## Input Same question for CCOC(=O)Cc1nc(C2CC2)nc(N=CN(C)C)c1Br [Compound 33] please.
## Output 50

## Input Same question for CCOC(=O)c1nc(C2CC2)nc(NNC(C)=O)c1Br [Compound 126] please.
## Output 20

## Input Same question for CC(C)OC(=O)c1nc(C2CC2)nc(N)c1Br [Compound 14] please.
## Output 70
